ASSAY: Quantitative highthroughput screen to assess conditional lethalithy of P12 Ichikawa cells grown in RPMI1640 with dialyzed fetal bovine serum (RPMI+ds) (AID 1963880); note: nearly all actives have a fitted effect of over 35% in size;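 for viability: 100% = DMSO wells and 0% = empty wells on each plate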
TEST CONTEXT: ATP luminescence, 48 h; P12-Ichikawa viability; series mostly up to 45.8 µM
Inconclusive results are not listed. Active and inactive are the calls of the source. Calls come from the whole dose curve; as a rule, active = well fitted cell-killing curve with a large enough effect; inconclusive = small, poorly fitted or top-dose-only effect; inactive = flat fitted curve, though single readings scatter.
Parameter call: string, one of class 1 (active), class 0 (inactive)

Below, 3 compounds whose answers are already recorded.
C[C@@H]1[C@H](O)[C@@H](C)C=CC=CC=CC=CC=CC=CC=C[C@H](O[C@@H]2O[C@H](C)[C@H](O)[C@H](N)[C@@H]2O)C[C@@H]2O[C@](O)(C[C@@H](O)C[C@@H](O)[C@H](O)CC[C@@H](O)C[C@@H](O)CC(=O)O[C@H]1C)C[C@H](O)[C@@H]2C(=O)O : class 0
CCC(=C(CC)c1ccc(O)cc1)c1ccc(O)cc1 : class 0
COc1cc2c(cc1OC)[C@@H]1C(=O)c3ccc4c(c3O[C@@H]1CO2)C=CC(C)(C)O4 : class 1

As a next step, examine the compound that follows.
[Q] Hi, do you know how `O=C(C=CC#Cc1cccc(NS(=O)(=O)c2ccccc2)c1)NO` came out in this test?
[A] class 1

====

ASSAY: Viability qHTS for spleen associated tyrosine kinase inhibitor (SYKi) drug resistant MV4-11 cells (AID 1963824); note: nearly all actives have a fitted effect of over 35% in size
TEST CONTEXT: SYKi-resistant MV4-11 viability, CellTiter-Glo, 72 h; series mostly up to 45 µM
Inconclusive results are not listed. Calls of active or inactive are those of the source. The call rests on the fitted dose curve; in most records, active means well fitted cell-killing curve with a large enough effect; inconclusive means small, poorly fitted or top-dose-only effect, or effect the other way; inactive means no such curve, though single readings can be large or run the other way.
Parameter call: string, one of Y = active, N = inactive

Below, 4 molecules whose answers are already recorded.
O=C(Nc1nnc(-c2ccc3c(c2)OCCO3)o1)C1CCCCC1 : N
CCS(=O)(=O)Nc1ccc2[nH]c(O)c(C(=Nc3ccc(CN4CCCCC4)cc3)c3ccccc3)c2c1 : Y
C=C(C(=O)OC)[C@@H]1CC=C2C=CC(=O)[C@H](C)[C@@]2(C)C1 : Y
C[C@@]1(c2cc(-c3cncnc3)c(F)cc2F)CCSC(N)=N1 : Y

As a next step, examine the molecule that follows.
[Q] Hi, do you know how Clc1ccc(C(Cn2ccnc2)OCc2ccsc2Cl)c(Cl)c1 (stereo not given) came out in this test?
[A] Y

====

ASSAY: Quantitative highthroughput screen to assess conditional lethalithy of NOMO1 cells grown in RPMI1640 with dialyzed fetal bovine serum (RPMI+ds) (AID 1963877); note: nearly all actives have a fitted effect of over 30% in size;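 for viability: 100% = DMSO control wells and 0% = empty wells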
TEST CONTEXT: NOMO1 in RPMI+dialyzed FBS viability, ATP luminescence, 48 h; series mostly up to 45.8 µM
Inconclusive results are not listed. The source made the active and inactive calls. Calls come from the whole dose curve; as a rule, active = well fitted cell-killing curve with a large enough effect; inconclusive = small, poorly fitted or top-dose-only effect; inactive = flat fitted curve, though single readings scatter.
Parameter call: string, one of active, inactive

[Q] Hi, do you know how C[Se]CCC(N)C(=O)O (stereo not given) came out in this test?
[A] inactive

[Q] Further, for `CNC(=O)c1cc(Oc2ccc(NC(=O)Nc3ccc(Cl)c(C(F)(F)F)c3)cc2)ccn1` ?
[A] active

[Q] Further, for `O=C(Nc1cccc(Nc2ncc(Br)c(NCCc3cnc[nH]3)n2)c1)N1CCCC1` ?
[A] active

[Q] Further, for `COc1ccc(C=Cc2cc(OC)c(OC)c(OC)c2)cc1O` ?
[A] inactive

[Q] Further, for `Cn1c(=O)n(-c2ccc(C(C)(C)C#N)cc2)c2c3cc(-c4cnc5ccccc5c4)ccc3ncc21` ?
[A] active

[Q] Further, for `CON(C)C(=O)N1N=C(c2cc(F)ccc2F)S[C@@]1(CCCN)c1ccccc1` ?
[A] active

[Q] Further, for C=C1C(=O)[C@@]23C(CC[C@@H]1[C@H]2O)[C@@]12CO[C@]3(O)[C@@H](O)[C@@H]1C(C)(C)CC[C@@H]2O (stereo not given in full) ?
[A] active
